target: WRN (Homo sapiens, UniProt Q14191); construct: A His-tagged construct of WRN (AA S2-S1235) was produced and used for the ATPase assay; His; made in house; host or cells: Sf9 insect cells (baculovirus); experiment: WRN ATPase activity assay (ADP-Glo); format: biochemical; conditions: 1-hr pre-incubation with enzyme; 100 μM ATP, 25 nM forked dsDNA, 1 nM WRN; geometric mean of at least 2 replicates
Sequence (Q14191 2-1235): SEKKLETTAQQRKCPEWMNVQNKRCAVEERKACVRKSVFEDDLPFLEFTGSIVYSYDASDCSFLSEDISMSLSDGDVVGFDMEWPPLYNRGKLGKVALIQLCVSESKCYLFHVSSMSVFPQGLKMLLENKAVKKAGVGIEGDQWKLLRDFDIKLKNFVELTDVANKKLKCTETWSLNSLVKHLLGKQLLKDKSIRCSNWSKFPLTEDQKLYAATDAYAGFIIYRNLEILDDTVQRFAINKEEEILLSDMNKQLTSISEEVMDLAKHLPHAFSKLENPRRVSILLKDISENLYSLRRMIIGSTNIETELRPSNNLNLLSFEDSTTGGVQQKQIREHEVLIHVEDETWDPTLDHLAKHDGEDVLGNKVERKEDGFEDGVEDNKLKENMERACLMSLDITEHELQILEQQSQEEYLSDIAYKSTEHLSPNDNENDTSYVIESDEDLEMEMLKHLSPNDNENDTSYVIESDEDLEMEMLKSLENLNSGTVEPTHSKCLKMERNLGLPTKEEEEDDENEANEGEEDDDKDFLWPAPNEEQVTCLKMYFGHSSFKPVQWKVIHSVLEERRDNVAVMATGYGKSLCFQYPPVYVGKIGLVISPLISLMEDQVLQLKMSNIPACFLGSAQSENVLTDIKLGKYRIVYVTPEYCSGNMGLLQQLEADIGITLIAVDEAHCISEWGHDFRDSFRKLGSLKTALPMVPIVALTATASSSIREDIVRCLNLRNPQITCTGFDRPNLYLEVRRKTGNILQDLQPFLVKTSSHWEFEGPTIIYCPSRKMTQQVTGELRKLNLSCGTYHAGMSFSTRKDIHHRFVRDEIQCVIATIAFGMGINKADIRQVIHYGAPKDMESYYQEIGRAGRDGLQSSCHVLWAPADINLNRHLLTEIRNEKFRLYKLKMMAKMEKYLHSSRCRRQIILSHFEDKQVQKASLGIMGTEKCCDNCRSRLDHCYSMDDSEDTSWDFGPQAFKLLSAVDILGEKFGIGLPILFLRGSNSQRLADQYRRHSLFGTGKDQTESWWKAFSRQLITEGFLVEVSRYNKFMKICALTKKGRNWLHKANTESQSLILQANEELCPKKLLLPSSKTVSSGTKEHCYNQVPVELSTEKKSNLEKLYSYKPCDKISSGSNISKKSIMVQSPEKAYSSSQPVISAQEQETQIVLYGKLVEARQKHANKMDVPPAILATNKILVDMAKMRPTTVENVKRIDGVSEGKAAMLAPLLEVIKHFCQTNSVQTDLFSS
pIC50: −log10 of the molar value.
// pIC50 lookup, one value per entry

Recorded pIC50 (molecule C=CC(=O)Nc1ccccc1-c1c(CC)nc2n(CC(=O)Nc3ccc(F)cc3)ccn2c1=O ): 6.30 to 7.00

Recorded pIC50 (molecule C#CCNC(=O)c1ccc(-c2c(CC)nc3n(CC(=O)Nc4ccc(C(F)(F)F)cc4)c(C)cn3c2=O)c(NC(=O)C=C)c1 ): > 7.00

Recorded pIC50 (molecule C=CC(=O)Nc1ccccc1-c1c(CC)nc2n(CC(=O)Nc3ccc(F)cc3)c(C)c(C)n2c1=O ): > 7.00

Recorded pIC50 (molecule C=CC(=O)Nc1cc(C(=O)N[C@H]2CCCOC2)ccc1-c1c(CC)nc2n(CC(=O)Nc3ccc(C(F)(F)F)cc3)c(C)c(C)n2c1=O ): > 7.00

Recorded pIC50 (molecule C=CC(=O)Nc1cc(C(=O)NCC(F)F)ccc1-c1c(CC)nc2n(CC(=O)Nc3ccc(C(F)(F)F)cc3)c(C)c(C)n2c1=O ): > 7.00

Recorded pIC50 (molecule C=CS(=O)(=O)Nc1ccccc1-c1c(CC)nc2n(CC(=O)Nc3ccc(C(F)(F)F)cc3)c(C)cn2c1=O ): > 7.00

Recorded pIC50 (molecule C=CC(=O)Nc1ccccc1-c1c(C)n(CC(=O)Nc2ccc(F)cc2)c2nc(CC)c(-c3ccccc3)c(=O)n12 ): > 7.00

###

Target: WRN (Homo sapiens, UniProt Q14191)
Construct: A His-tagged construct of WRN (AA S2-S1235) was produced and used for the ATPase assay; His; made in house; host or cells: Sf9 insect cells (baculovirus)
Test: WRN ATPase activity assay (ADP-Glo)
Type: biochemical
Settings: 1-hr pre-incubation with enzyme; 100 μM ATP, 25 nM forked dsDNA, 1 nM WRN; geometric mean of at least 2 replicates
Procedure: Compounds of the Examples were tested for WRN ATPase activity. WRN ATPase activity catalyzes ATP hydrolysis to produce ADP and phosphate. DNA encoding the target protein, 6×HIS-TEV-WRN-517-945, was produced, cloned and transfected as detailed in Example D. The amount of ADP produced was measured using ADP-Glo™ Kinase Assay kit from Promega Corporation in a Greiner white regular volume 384 wells assay plate (Greiner #781075). […]
pIC50: −log10 of the molar value.
// pIC50 lookup, one value per entry

Look over these answered cases.
C=CC(=O)Nc1cc(C(=O)N2CCOCC2)ccc1-c1c(CC)nc2n(CC(=O)Nc3ccc(C(F)(F)F)cc3)c(C)c(C)n2c1=O    > 7.00
C=CC(=O)Nc1ccccc1-c1c(C)n(CC(=O)Nc2ccc(C(F)(F)F)cc2)c2nc(CC)c(C)c(=O)n12    6.30 to 7.00
C=CC(=O)Nc1ccccc1-c1c(CC)nc2n(CC(=O)Nc3ccc(F)cc3Cl)c(C)c(C)n2c1=O    > 7.00

Recorded pIC50 (molecule C=CC(=O)Nc1cc(C(=O)NC2CC2)ccc1-c1c(CC)nc2n(CC(=O)Nc3ccc(F)cc3Cl)c(C)c(C)n2c1=O ): > 7.00

###

// IC50 lookup, one value per entry
Biological target: WRN (Homo sapiens)
Construct: A His-tagged construct of WRN (AA S2-S1235) was produced and used for the ATPase assay; His; made in house; host or cells: Sf9 insect cells (baculovirus)
Assay: WRN Helicase activity assay (fluorescence DNA unwinding)
Format: biochemical
Settings: 1-hr pre-incubation with enzyme; 100 μM ATP, 25 nM forked dsDNA, 1 nM WRN; geometric mean of at least 2 replicates
Experimental: Compounds of the examples were tested for WRN helicase activity. […] The WRN Helicase assay was designed to measure increase in fluorescence signal using a fluorescence based, donor-quencher paired forked dsDNA oligomer substrate (custom synthesis from Sigma-Aldrich) prepared by annealing equal amounts of oligo GPat-1 ([BHQ2][…]) and oligo GPat-2 ([…][TAM]). […]
Where a name gives a salt, the structure may show the parent alone.

Look over these answered cases.
C=CC(=O)Nc1ccccc1-c1c(C)n(CC(=O)Nc2ccc(C(F)(F)F)cc2)c2nc(CC)c(-c3ccc(C(=O)NC)nc3)c(=O)n12 [Example 41, trifluoroacetate salt]    < 100 nM
C=CC(=O)Nc1cc(C(=O)N[C@H]2CCCOC2)ccc1-c1c(CC)nc2n(CC(=O)Nc3ccc(C(F)(F)F)cc3)c(C)c(C)n2c1=O    < 100 nM
C=CC(=O)Nc1ccccc1-c1c(CC)nc2n(CC(=O)Nc3ccc(C(F)(F)F)cc3)c(C)c(C)n2c1=O    < 100 nM
CCc1nc2n(CC(=O)Nc3ccc(C(F)(F)F)cc3)c(C)cn2c(=O)c1-c1ccccc1NC(=O)CCl    < 100 nM
C=CS(=O)(=O)Nc1ccccc1-c1c(C)n(CC(=O)Nc2ccc(F)cc2)c2nc(CC)c(-c3ccccc3)c(=O)n12    < 100 nM

Next molecule, please.
Test item C=CC(=O)Nc1cc(C(=O)NC2(CO)CC2)ccc1-c1c(CC)nc2n(CC(=O)Nc3ccc(C(F)(F)F)cc3)c(C)c(C)n2c1=O ; WRN (Homo sapiens); reported IC50 was < 100 nM

###

target: WRN (Homo sapiens); construct: A His-tagged construct of WRN (AA S2-S1235) was produced and used for the ATPase assay; His; made in house; host or cells: Sf9 insect cells (baculovirus); test: WRN ATPase activity assay (ADP-Glo); type: biochemical; conditions: 1-hr pre-incubation with enzyme; 100 μM ATP, 25 nM forked dsDNA, 1 nM WRN; geometric mean of at least 2 replicates
// IC50 lookup, one value per entry

Recorded IC50 (compound C=CC(=O)Nc1cc(C(=O)NC2CC2)ccc1-c1c(CC)nc2n(CC(=O)Nc3ccc(F)cc3)c(C)c(C)n2c1=O [Example 24] ): < 0.1 µM

Recorded IC50 (compound C=CC(=O)Nc1cc(C(=O)NC2CCOCC2)ccc1-c1c(CC)nc2n(CC(=O)Nc3ccc(C(F)(F)F)cc3)c(C)cn2c1=O [Example 13] ): < 0.1 µM

Recorded IC50 (compound C=CC(=O)Nc1cc(S(C)(=O)=O)ccc1-c1c(CC)nc2n(CC(=O)Nc3ccc(C(F)(F)F)cc3)c(C)cn2c1=O [Example 3] ): < 0.1 µM

###

Target: WRN (Homo sapiens)
Construct: A His-tagged construct of WRN (AA S2-S1235) was produced and used for the ATPase assay; His; made in house; host or cells: Sf9 insect cells (baculovirus)
Assay: WRN Helicase activity assay (fluorescence DNA unwinding)
Format: biochemical
Conditions: 1-hr pre-incubation with enzyme; 100 μM ATP, 25 nM forked dsDNA, 1 nM WRN; geometric mean of at least 2 replicates
Protocol: Compounds of the examples were tested for WRN helicase activity. […] The WRN Helicase assay was designed to measure increase in fluorescence signal using a fluorescence based, donor-quencher paired forked dsDNA oligomer substrate (custom synthesis from Sigma-Aldrich) prepared by annealing equal amounts of oligo GPat-1 ([BHQ2][…]) and oligo GPat-2 ([…][TAM]). […]
pIC50: −log10 of the molar value. Structures can show the parent of a compound that is named as a salt.
measure: pIC50

C=CC(=O)Nc1cc(C(=O)NC(C)C)ccc1-c1c(CC)nc2n(CC(=O)Nc3ccc(C(F)(F)F)cc3)c(C)c(C)n2c1=O    > 7.00
C=CC(=O)Nc1ccccc1-c1c(C)n(CC(=O)Nc2ccc(C(F)(F)F)cc2)c2nc(CC)c(-c3ccc(C(=O)NCC)cc3)c(=O)n12 [Example 40, trifluoroacetate salt]    > 7.00

Recorded pIC50 (compound C#CCNC(=O)c1ccc(-c2c(CC)nc3n(CC(=O)Nc4ccc(C(F)(F)F)cc4)c(C)cn3c2=O)c(NC(=O)C=C)c1 ): > 7.00
